System: CAKI-1 renal
Assay Comment: NCI tumour cell line growth inhibition, 48 h
Measured TGI by item
Report as a plain number; the unit µM is understood.

Recorded TGI, per entry:
1. Cc1ccc(S(=O)(=O)N2CCc3ccc(O)c4c3C2Cc2cc(Cl)ccc2-4)cc1 (centres undefined); 16.9
2. COc1cc([C@@H]2c3[nH]c4ccccc4c3C(Nc3ccc([N+](=O)[O-])cc3)[C@H]3COC(=O)N23)cc(OC)c1O (some centres undefined); 2.11

Entry `COc1ccccc1CNCCCN1C(=O)c2ccc3c4c(ccc(c24)C1=O)C(=O)N(CCCNCCCN)C3=O` — recorded TGI = 5.77

----------
Test system: HS 578T breast
Assay Comment: NCI tumour cell line growth inhibition, 48 h
As shown below, each of these molecules has a reported GI50 value.

Example results:
1) NS(=O)(=O)c1ccc(CCN=C=S)cc1; 3.21 µM
2) C[C@H]1[C@H](C)CC[C@]2(C(=O)O)CC[C@]3(C)C(=CC[C@@H]4[C@@]5(C)C/C(=C/c6ccco6)C(=O)C(C)(C)[C@@H]5CC[C@]43C)[C@H]12; 11.6 µM
3) CCOC(=O)c1sc(=S)c2c(C(=O)OCC)c(C(=O)OCC)sc2c1C(=O)OCC; 17.7 µM
4) COc1ccccc1CNCCCN1C(=O)c2ccc3c4c(ccc(c24)C1=O)C(=O)N(CCCNCCCN)C3=O; 1.2 µM
5) CSc1nc2sc3cc(Cl)ccc3n2c(=N)c1C#N; 2.89 µM

Documented GI50 of `C[C@@H]1C=C2C(=O)O[C@@H]3CC[C@H](C1)[C@]23O` : 12.7 µM

So, `COc1ccc([N+](=O)[O-])c(S(=O)(=O)c2ccc(Cl)cc2)n1` ? Its GI50 was 13 µM

Record summary for `COC(=O)CCC/C=C\C[C@H]1C=CC(=O)/C1=C/C[C@@H](O)C/C=C\CC(F)(F)F` : reported GI50 = 8.98 µM

Sure, the documented GI50 for `COc1cc(-n2cc(-c3ccc(Cl)cc3)[nH]c2=O)cc(OC)c1OC` is 76.6 µM

Short answer for `COc1cc(CC2C(=O)NC(=O)NC2=O)ccc1OCc1ccccc1` : GI50 was 91.3 µg/mL

GI50 recorded for this molecule, Cc1ccc(S(=O)(=O)N2CCc3ccc(O)c4c3C2Cc2cc(Cl)ccc2-4)cc1 (stereo not given) , is 0.889 µM

Quick note, GI50 for `COc1cc(/C=C2\COc3ccc(O)c(O)c3C2=O)cc(OC)c1` landed at 2.66 µM

Sure, the documented GI50 for `Cc1ccc(C)c(-c2csc(Nc3ccc(C)c(C)c3)n2)c1` is 30.6 µM

Measured GI50, `Cc1[nH]c(=O)[nH]c(=O)c1CO` : > 100 µM

// sample `CCOC(=O)c1sc(Nc2ccc(Cl)cc2)nc1C` , its GI50 was 2.22 µM

----------
Tested on: COLO 205 colon
Assay Comment: NCI tumour cell line growth inhibition, 48 h; in the data active means GI50 below about 0.43 µM; inactive means the rest
API: response.call in true = active, false = inactive

Solved entries (count: 5):
1) COc1ccc([N+](=O)[O-])c(S(=O)(=O)c2ccc(Cl)cc2)n1; false
2) COC1=CC(c2ccc[nH]2)=N/C1=C\c1[nH]c(C)c(C(=O)CCCCC(=O)Nc2ccccc2)c1C; false
3) COC1=CC(c2ccc[nH]2)=N/C1=C\c1ccc[nH]1; true
4) CCOC(=O)c1c(C(F)(F)F)n([O-])c2ccc(OC)cc2[n+]1=O; false
5) COc1ccc(/C=C/c2n[nH]c3ccc(N4CCOC4=O)cc23)cc1; false

Prompt: For `Cc1nc(NC(=O)CCCN2C(=O)c3cccc4cccc(c34)C2=O)sc1C(=O)Nc1cc(C(=O)NCCCN(C)C)n(C)c1` , which call appears in the assay record?
Completion: false

Prompt: Lab log entry: `CCCN(CCC)c1ccc(/C=N/NC(=O)c2cccnc2)c(Cl)c1` — outcome as called in the assay?
Completion: false

Prompt: # lookup: test call for `Cn1cc(C2=C(c3cn(CCN)c4ccccc34)C(=O)NC2=O)c2ccccc21`
Completion: false

Prompt: Outcome? `COc1cc(/C=C2\COc3ccc(O)c(O)c3C2=O)cc(OC)c1`
Completion: false

Prompt: How was `CCOC(=O)c1sc(Nc2ccc(Cl)cc2)nc1C` classified in this test?
Completion: false

----------
Test system: MDA-MB-435
Assay Comment: NCI tumour cell line growth inhibition, 48 h
Reported Metric: log10 TGI (log10 of the value in µM)
Parameter value (number): base-10 log of TGI in µM.

// known answers, use as guide
1) CS(=O)(=O)Nc1ccc(Nc2c3ccccc3nc3ccccc23)cc1; 1.53
2) COc1cc([C@@H]2c3[nH]c4ccccc4c3C(Nc3ccc([N+](=O)[O-])cc3)[C@H]3COC(=O)N23)cc(OC)c1O (some centres not stated); 0.39
3) CCOC(=O)c1c(C(F)(F)F)n([O-])c2ccc(OC)cc2[n+]1=O; 1.88
4) S=C(S)N1CCN(c2ccc(Cl)c(Cl)c2)CC1; 1.57
5) CN(CCCCN(C)CCc1ccc(Cl)c(Cl)c1)CCCCN1CCCC1; -0.04
6) ClC1=C(Cc2ccccc2)Cc2ccc3c(c21)CCC3; 1.88

GET /value?item= `O=[n+]1c2ccccc2n([O-])c2cc(Br)ccc21` &field=log10 TGI returns 1.56

log10 TGI in this record for `COc1ccc(/C=C/c2n[nH]c3ccc(N4CCOC4=O)cc23)cc1` : 1.59

Field log10 TGI (entry `C=C(C)[C@@H]1CC[C@]2(C)[C@H](CC[C@@H]3[C@H]4[C@H]5OC[C@@]4(CCC5(C)C)CC[C@]32C)[C@@]1(C)CCCN` ) reads 0.51

----------
Tested on: OVCAR-4 ovarian
Assay Comment: NCI tumour cell line growth inhibition, 48 h
As shown below, each of these compounds has a reported TGI value.
Unit µM implied. Number only.

1. Nc1ccc(/C=N/Nc2ccnc3c(N)cccc23)c2cccnc12; 3.35

Bench note, OVCAR-4 ovarian: entry `O=[N+]([O-])c1cc(-[n+]2cc([O-])on2)ccc1F` , its TGI = 30.4

----------
Tested on: MDA-MB-231 breast
Assay Comment: NCI tumour cell line growth inhibition, 48 h
Outcome label depends on TGI relative to 30 µM: at/above gives yes, below gives no.

1. COc1cc([N+](=O)[O-])ccc1NC1=CC(=O)CCC1; yes

Prompt: Does `Cc1c2c(n(Cc3ccccn3)c1C)NN=C(C#N)S2(=O)=O` have a reported TGI of at least 30 µM?
Completion: yes

Prompt: Does TGI meet or surpass 30 µM for `O=C(O)CC/C(=N\Nc1nsc2ccccc12)c1ccc(Cl)cc1` ?
Completion: yes

----------
Test system: SK-MEL-2 melanoma
Assay Comment: NCI tumour cell line growth inhibition, 48 h; in the data active means GI50 below about 0.43 µM; inactive means the rest
Parameter call: string, one of YES for active, NO for inactive

Reference set (6 entries):
1. COc1cc(C(=O)c2cc3c(cc2C)OCO3)cc(OC)c1OC; NO
2. CCCCCCCC[N+](C)(CCCCCCCC)CCCCCCCC; YES
3. CCOC(=O)c1c(C(F)(F)F)n([O-])c2ccc(OC)cc2[n+]1=O; NO
4. COc1ccc(NC(=O)c2sc3nc(C)c(C(O)c4ccccc4)cc3c2N)cc1 (stereo not given); NO
5. NCCC(O)(P(=O)(O)O)P(=O)(O)O; NO
6. NS(=O)(=O)c1ccc(N2N=C3c4ccccc4CC3C2c2ccc(Cl)cc2)cc1 (stereo not given); NO

Prompt: Please let me know the test result on file for `COc1cc(/C=C2\COc3ccc(O)c(O)c3C2=O)cc(OC)c1` .
Completion: NO

Prompt: So what was the verdict on `COc1ccccc1CNCCCN1C(=O)c2ccc3c4c(ccc(c24)C1=O)C(=O)N(CCCNCCCN)C3=O` in this test?
Completion: NO

Prompt: For this compound, state the assay outcome: `CCOC(=O)c1sc(=S)c2c(C(=O)OCC)c(C(=O)OCC)sc2c1C(=O)OCC`
Completion: NO

Prompt: Answer briefly: the call reported for `Cc1nc(NC(=O)CCCN2C(=O)c3cccc4cccc(c34)C2=O)sc1C(=O)Nc1cc(C(=O)NCCCN(C)C)n(C)c1` in this assay.
Completion: NO

----------
Tested on: LOX IMVI melanoma
Assay Comment: NCI tumour cell line growth inhibition, 48 h; in the data active = GI50 below about 0.43 µM; inactive = the rest
Just give me one of these, please: active, inactive

The examples below pair each entry with its known result.
1. COc1ccc2c(c1)CCC1C2CC[C@]2(C)/C(=N/OC(=O)Cc3ccccc3)CCC12 (some centres undefined); inactive
2. CO[C@@H]1[C@H](OC(=O)NC(=O)CCl)CC[C@]2(CO2)[C@H]1[C@@]1(C)O[C@@H]1CC=C(C)C; inactive
3. Cc1ccc(C)c(-c2csc(Nc3ccc(C)c(C)c3)n2)c1; inactive
4. COc1ccc(NC(=O)c2sc3nc(C)c(C(O)c4ccccc4)cc3c2N)cc1 (centres undefined); inactive

Prompt: // param item: `COC(=O)CCC/C=C\C[C@H]1C=CC(=O)/C1=C/C[C@@H](O)C/C=C\CC(F)(F)F` ; yields the recorded call
Completion: active

Prompt: // param item: CCC(C)C(NC(=O)C1CCCN1C(=O)C(NC(=O)C(C)N)C(C)C)C(N)=O (centres undefined) ; yields the recorded call
Completion: inactive

Prompt: Dear all, I need the recorded test outcome for `COC1=CC(c2ccc[nH]2)=N/C1=C\c1[nH]c(C)c(C(=O)CCCCC(=O)Nc2ccccc2)c1C` , thank you.
Completion: inactive

Prompt: Hi team, can someone confirm the assay call for `CCCc1nc2c(C)cc(-c3nc4ccccc4n3C)cc2n1Cc1ccc(-c2ccccc2C(=O)O)cc1` ?
Completion: inactive

Prompt: Assay result, entry `C[C@@H]1C=C2C(=O)O[C@@H]3CC[C@H](C1)[C@]23O` — outcome?
Completion: inactive
